Measured binding signal by item
Biological target: GST-NbGlk1(82-244) (Nicotiana benthamiana)
Chain: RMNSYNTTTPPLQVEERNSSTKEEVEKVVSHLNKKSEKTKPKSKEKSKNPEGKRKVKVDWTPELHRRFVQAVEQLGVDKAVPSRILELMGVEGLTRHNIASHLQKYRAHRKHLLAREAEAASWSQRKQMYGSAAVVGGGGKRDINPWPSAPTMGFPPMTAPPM
Experiment: protein-binding microarray; high values mean tight binding
Conditions: protein: recombinant; tags: GST (pTH6838); dsDNA, one strand shown
Over roughly 16,000 sequences, “e-score” has its median near -0.044; the highest 2% begin near 0.38. The sample as a whole holds a higher share of the highest values than the screen did.
State the answer as a number, implicitly in E-score.

Consider the reported binding signal for these sequences:
>>> recorded_value("ATTAGATA")
0.304
>>> recorded_value("ATATTGAA")
0.203
>>> recorded_value("ATTGTGCG")
0.2
>>> recorded_value("ATTTCACG")
0.242
>>> recorded_value("AATCAAAA")
0.296

### Prompt Dear colleague, I am looking for the recorded binding signal of the following sequence: "ATTTCTTG"
### Response 0.258

### Prompt Further, for "ATCCCAAT" ?
### Response 0.201

### Prompt Further, for "ATCAGAAA" ?
### Response 0.272

### Prompt Further, for "AAAAGATT" ?
### Response 0.388

### Prompt Further, for "AATAGATT" ?
### Response 0.406

### Prompt Further, for "ATTTCAAG" ?
### Response 0.23

### Prompt Further, for "ATTTATAA" ?
### Response 0.229

### Prompt Further, for "AATCCAAC" ?
### Response 0.348

### Prompt Further, for "AATGCAAT" ?
### Response 0.303

### Prompt Further, for "AACGGATT" ?
### Response 0.392

### Prompt Further, for "AACAGATC" ?
### Response 0.305

### Prompt Further, for "ACAAGATA" ?
### Response 0.322

### Prompt Further, for "ATTCCAAG" ?
### Response 0.205

### Prompt Further, for "AATCCAAT" ?
### Response 0.408

### Prompt Further, for "AATACGAA" ?
### Response 0.205

### Prompt Further, for "AAAAGATC" ?
### Response 0.301

### Prompt Further, for "ATTTCCGC" ?
### Response 0.333

----------
Molecular target: GST-NbGlk1(82-244) (Nicotiana benthamiana)
Chain: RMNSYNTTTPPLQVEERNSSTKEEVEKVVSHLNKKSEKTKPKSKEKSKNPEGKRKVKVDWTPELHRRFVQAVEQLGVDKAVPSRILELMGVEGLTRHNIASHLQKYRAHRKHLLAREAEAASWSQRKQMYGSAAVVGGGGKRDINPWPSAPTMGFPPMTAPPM
Experiment: protein-binding microarray; high values mean tight binding
Details: protein: recombinant; tags: GST (pTH6838); dsDNA, one strand shown
In all, about 16,000 sequences were measured (“e-score”: median about -0.044, highest 2% from about 0.38 on). This is one part of a sample in which the highest values are shown more often than they occur.
Measured binding signal by item
The number alone won't do; follow it with the unit.

>>> recorded_value("ATTTCGAA")
"0.316 E-score"
>>> recorded_value("AATCTCTA")
"0.377 E-score"
>>> recorded_value("ATATCTTA")
"0.408 E-score"
>>> recorded_value("ATCGCACA")
"0.256 E-score"
>>> recorded_value("ATATCTTG")
"0.436 E-score"

### Prompt Which binding signal is reported with GST-NbGlk1(82-244) (Nicotiana benthamiana) for this entry: "ATTGTGTC" ?
### Response 0.225 E-score

### Prompt Further, for "AGGATTTG" ?
### Response 0.383 E-score

### Prompt Further, for "ATCCGCTA" ?
### Response 0.353 E-score

### Prompt Further, for "AATCTCAT" ?
### Response 0.42 E-score

### Prompt Further, for "AGTATTTG" ?
### Response 0.208 E-score

----------
Target: GST-NbGlk1(82-244) (Nicotiana benthamiana)
Chain: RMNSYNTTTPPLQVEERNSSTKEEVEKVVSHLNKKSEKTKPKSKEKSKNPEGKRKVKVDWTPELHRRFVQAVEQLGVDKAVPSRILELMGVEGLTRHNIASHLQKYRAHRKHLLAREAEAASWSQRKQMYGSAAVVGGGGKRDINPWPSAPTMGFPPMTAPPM
Assay: protein-binding microarray; high values mean tight binding
Details: protein: recombinant; tags: GST (pTH6838); dsDNA, one strand shown
Over roughly 16,000 sequences, “e-score” has its median near -0.044; the highest 2% begin near 0.38. The sample holds the highest values, similar sequences and a random draw of the others, so the mix is not that of the screen.
Readout name: binding signal (E-score)
State the answer as a number, implicitly in E-score.

Consider the reported binding signal for these sequences:
>>> recorded_value("ATCTGATG")
0.241
>>> recorded_value("ATCAGAAT")
0.275
>>> recorded_value("AAATTGCG")
0.262
>>> recorded_value("AAAAATAA")
0.229
>>> recorded_value("AAAATATC")
0.406

# ---- query sequence ----
### Prompt Dear colleague, I am looking for the recorded binding signal of the following sequence: "AAGATACG"
### Response 0.319

----------
Measured binding signal by item
Target: GST-NbGlk1(82-244) (Nicotiana benthamiana)
Chain: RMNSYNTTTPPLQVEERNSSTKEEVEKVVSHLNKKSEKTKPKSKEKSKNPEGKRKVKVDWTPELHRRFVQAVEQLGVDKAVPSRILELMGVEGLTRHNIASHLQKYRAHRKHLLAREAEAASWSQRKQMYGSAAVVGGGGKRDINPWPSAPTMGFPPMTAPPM
Assay: protein-binding microarray; high values mean tight binding
Conditions: protein: recombinant; tags: GST (pTH6838); dsDNA, one strand shown
In all, about 16,000 sequences were measured (“e-score”: median about -0.044, highest 2% from about 0.38 on). Shown is part of a subset that was picked to be rich in the highest values.
The number alone won't do; follow it with the unit.

Consider the reported binding signal for these sequences:
>>> recorded_value("ATATCGAC")
"0.32 E-score"
>>> recorded_value("CAAATCAC")
"0.272 E-score"
>>> recorded_value("AATTGAAA")
"0.226 E-score"
>>> recorded_value("CAAATCTC")
"0.426 E-score"
>>> recorded_value("ATCCCCGG")
"0.256 E-score"

### Prompt Dear colleague, I am looking for the recorded binding signal of the following sequence: "AATCATAC"
### Response 0.263 E-score

### Prompt Further, for "AAATCTGA" ?
### Response 0.469 E-score

### Prompt Further, for "ATCTTTTC" ?
### Response 0.289 E-score

### Prompt Further, for "ATATTTCC" ?
### Response 0.369 E-score

### Prompt Further, for "AATCGAGA" ?
### Response 0.293 E-score

### Prompt Further, for "ATCTCCAA" ?
### Response 0.342 E-score

----------
Biological target: GST-NbGlk1(82-244) (Nicotiana benthamiana)
Chain: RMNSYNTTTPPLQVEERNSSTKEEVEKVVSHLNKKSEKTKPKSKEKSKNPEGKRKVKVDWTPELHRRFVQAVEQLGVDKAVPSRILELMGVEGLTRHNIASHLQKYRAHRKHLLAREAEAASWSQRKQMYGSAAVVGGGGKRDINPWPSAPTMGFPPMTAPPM
Assay: protein-binding microarray; NbGlk1 is a Golden2-like transcription factor of Nicotiana benthamiana; high values mean tight binding
Details: protein: recombinant; tags: GST (pTH6838); dsDNA, one strand shown
Whole data set: some 16,000 sequences, median “e-score” near -0.044, cut for the highest 2% near 0.38. The list comes from a sample in which the highest values are over-represented; it also holds close analogues and randomly drawn sequences.
Everything with binding signal lower than 0.3 E-score is Not met; everything else, including exactly 0.3 E-score, is Met.

>>> category_label("CACATATC")
"Not met"
>>> category_label("AATTTCGG")
"Not met"
>>> category_label("AATCCAGT")
"Met"
>>> category_label("ATTCTTAG")
"Not met"
>>> category_label("ATGATATC")
"Met"
>>> category_label("AATTTCGT")
"Not met"

### Prompt Hi, just wondering whether "AATCCCAG" shows binding signal of 0.3 E-score or higher.
### Response Met

### Prompt Further, for "ATGATATG" ?
### Response Not met

### Prompt Further, for "AATCTTAC" ?
### Response Met

### Prompt Further, for "ATTCTTAA" ?
### Response Not met
